system: FGFR1 (UniProt P11362)
Sequence (P11362 whole entry, looked up): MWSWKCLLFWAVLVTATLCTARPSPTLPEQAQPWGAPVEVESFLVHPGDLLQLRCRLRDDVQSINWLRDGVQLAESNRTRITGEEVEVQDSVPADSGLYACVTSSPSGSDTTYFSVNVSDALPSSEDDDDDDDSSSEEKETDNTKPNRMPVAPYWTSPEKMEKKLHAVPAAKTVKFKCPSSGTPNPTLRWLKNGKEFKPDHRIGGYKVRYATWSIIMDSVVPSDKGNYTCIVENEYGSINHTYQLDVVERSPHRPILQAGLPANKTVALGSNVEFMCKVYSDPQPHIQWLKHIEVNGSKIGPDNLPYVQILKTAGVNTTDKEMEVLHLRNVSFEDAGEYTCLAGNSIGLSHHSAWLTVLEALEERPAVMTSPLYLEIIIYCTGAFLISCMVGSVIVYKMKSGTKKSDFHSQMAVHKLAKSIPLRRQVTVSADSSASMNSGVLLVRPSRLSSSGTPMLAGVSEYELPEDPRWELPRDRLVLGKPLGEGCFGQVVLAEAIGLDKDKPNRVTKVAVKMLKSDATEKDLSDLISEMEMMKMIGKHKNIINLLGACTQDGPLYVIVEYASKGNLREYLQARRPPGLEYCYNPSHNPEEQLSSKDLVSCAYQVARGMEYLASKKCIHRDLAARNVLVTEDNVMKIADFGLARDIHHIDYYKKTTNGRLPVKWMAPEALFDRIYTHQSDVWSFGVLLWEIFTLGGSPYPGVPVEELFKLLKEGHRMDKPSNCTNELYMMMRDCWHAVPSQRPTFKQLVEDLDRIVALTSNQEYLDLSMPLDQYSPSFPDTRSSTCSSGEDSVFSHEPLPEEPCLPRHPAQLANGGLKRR
testProtocol: phosphorylation enrichment, bacterial display (enrichment ratio); higher = better substrate or ligand; peptides without Tyr show the background;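 further: 11-residue human phosphosite peptides and single-mutation variants displayed on the E. coli surface, counted by deep sequencing, each peptide's frequency after selection divided by its frequency in the unselected input library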;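 further: frequency after pTyr selection over input frequency; kinase dosed for 20-30% of maximal phosphorylation in three min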
Classification field: enter T for phosphorylation enrichment values not below 0.5, F for values below it.

Consider the worked cases shown below.
>>> print(df.to_string())
                constructsequence                  system  cat
0    FFDANYDGKEF [MAPRE2_Y162_YF]  FGFR1 (UniProt P11362)    T
1        EQLRAYLEGTC [HLA-C_Y183]  FGFR1 (UniProt P11362)    T
2  FIGCIYLYLTK [GARS1_Y414_R412C]  FGFR1 (UniProt P11362)    T

Please indicate if the recorded phosphorylation enrichment for DTDSSYCIPIA [GAB1_Y373_T377I] meets or exceeds 0.5.
T

Please indicate if the recorded phosphorylation enrichment for LLQEWYMIISR [HUWE1_Y4066_R4063Q] meets or exceeds 0.5.
T

Please indicate if the recorded phosphorylation enrichment for EWKNNYPRLRE [OPA1_Y582] meets or exceeds 0.5.
F

Please indicate if the recorded phosphorylation enrichment for TTKGSYSLYVR [HCK_Y180_S183Y] meets or exceeds 0.5.
F

Please indicate if the recorded phosphorylation enrichment for GVPLGYPIKAP [ELN_Y206] meets or exceeds 0.5.
F

Please indicate if the recorded phosphorylation enrichment for VTQEPYELFCE [CBL_Y368_Q367P_YF] meets or exceeds 0.5.
T

Please indicate if the recorded phosphorylation enrichment for EVVGRYSGHNA [MLH1_Y183_V185G] meets or exceeds 0.5.
F

Please indicate if the recorded phosphorylation enrichment for INQGPYENHSV [ATP6V1B1_Y462_R465H] meets or exceeds 0.5.
F

Please indicate if the recorded phosphorylation enrichment for EKKKYYDAKIE [CASP5_Y104_T106A] meets or exceeds 0.5.
T

Please indicate if the recorded phosphorylation enrichment for IIGNGYFFHVF [MYBPC3_Y1135_R1138H_YF] meets or exceeds 0.5.
F

All values here come from the supplement of paper PMC10065799.
